Data provenance is ChEMBL document CHEMBL1129027.

tested on: HL-60; assay: Compound was evaluated for cell growth inhibition against HL 60 cell line by irradiation in the presence of examined compound; type: functional, cell-based; conditions: Homo sapiens, HL-60, light or radiation study
pIC50: −log10 of the molar value.
Outcome measure: pIC50

- Smi: "COc1cc2occ(C)c2c2oc(=O)c(C)cc12"
  Assay value: 6.23
- Smi: "COc1cc2occ(C)c2c2oc(=O)cc(C)c12"
  Assay value: 6.16
- Smi: "COc1c2c(C)coc2cc2oc(=O)cc(C)c12"
  Assay value: 6.17

A. COc1c2occc2cc2ccc(=O)oc12
B. COc1c2cc(C)c(=O)oc2cc2occ(C)c12
Ask: For the two items A and B , which reports the higher pIC50 value? Answer format: the label of the selected item.
Result: A

---

test system: Nucleic Acid; test: Rate constant of the photoreaction between compound and DNA; type: nucleic-acid assay; conditions: Bos taurus
Outcome measure: Rate constant (min⁻¹)

Example cases with answers are listed next.
- Smi: "COc1cc2occ(C)c2c2oc(=O)cc(C)c12"
  Output unit: "min⁻¹"
  Rate constant: 2.2
- Smi: "COc1c2c(C)coc2cc2oc(=O)cc(C)c12"
  Output unit: "min⁻¹"
  Rate constant: 2.1

1. COc1c2cc(C)c(=O)oc2cc2occ(C)c12
2. COc1cc2occ(C)c2c2oc(=O)c(C)cc12
Ask: # argmax over Rate constant for candidates 1 and 2 Reply with the label of the item you choose.
Result: 1
(1: 0.32 min⁻¹, 2: 0.17 min⁻¹)

---

system: Nucleic Acid; assay: Binding parameters of complexes between compound and DNA; format: nucleic-acid assay; settings: Bos taurus
Outcome measure: K (M⁻¹)

- Smi: "COc1cc2occ(C)c2c2oc(=O)cc(C)c12"
  Measured target: "Nucleic Acid"
  Output unit: "M⁻¹"
  Assay value: 3700
- Smi: "COc1c2cc(C)c(=O)oc2cc2occ(C)c12"
  Measured target: "Nucleic Acid"
  Output unit: "M⁻¹"
  Assay value: 920

a. COc1c2c(C)coc2cc2oc(=O)cc(C)c12
b. COc1cc2occ(C)c2c2oc(=O)c(C)cc12
Ask: Hi! Which is lower in terms of K, the first one a or the second one b ? Lab note: record the label of whichever item you select.
Result: a
(a: 630 M⁻¹, b: 3100 M⁻¹)
